# Measured target: human PDHK2 (hPDHK2) (Homo sapiens (Human), UniProt Q15119)
# Assay summary: Inhibitory action of PDHK activity in vitro (kinase reaction, residual PDH activity measured)
# Format: biochemical
# Conditions: PDHK inhibitory activity (class symbol)
# Method: In the case of human PDHK2 (hPDHK2, Genbank Accession No. NM_002611), modified hPDHK2 cDNA wherein FLAG-Tag sequence is added to the N terminal by a polymerase linkage reaction was prepared based on hPDHK2 cDNA clone (pReceiver-M01/PDK2-GeneCopoeia), and cloned into a vector (pET17b-Novagen). The recombinant construct was transformed into Escherichia coli (DH5α-TOYOBO). The recombinant clones were identified, plasmid DNA was isolated and subjected to the DNA sequence analysis. […]
pIC50: −log10 of the molar value.
Measured property: pIC50

Worked cases, answers included:
[[record]]
molecule = "Cc1cc(-c2cnn(C(CO)CO)c2)c2c(c1)C(O)(C(F)(F)F)c1ccccc1-2 (single isomer, unassigned)"
result = "> 7.00"

[[record]]
molecule = "COc1cc(C(N)=O)c2c(c1)C(O)(C(F)(F)F)c1ccccc1-2 (centres unmarked)"
result = "6.00 to 7.00"

[[record]]
molecule = "CC(C)(C)Cn1cc(-c2cc(CO)c3c(c2)C(O)(C(F)(F)F)c2ccccc2-3)cn1 (centres unmarked) [compound 650]"
result = "> 7.00"

[[record]]
molecule = "CCn1cc(-c2cc(CO)c3c(c2)C(O)(C(F)(F)F)c2ccccc2-3)cn1 (centres unmarked) [compound 618]"
result = "> 7.00"

[[record]]
molecule = "NC(=O)c1cc(CCCN2CCCC2=O)cc2c1-c1ccccc1C2(O)C(F)(F)F (centres unmarked)"
result = "> 7.00"

[[record]]
molecule = "CC(C)(C)Cn1cc(-c2cc(C(N)=O)c3c(c2)C(O)(C(F)(F)F)c2ccccc2-3)cn1 (centres unmarked) [compound 646]"
result = "> 7.00"

[[record]]
molecule = "NC(=O)c1cc(-c2cncnc2)cc2c1-c1ccccc1C2(O)C(F)(F)F (centres unmarked)"
result = "> 7.00"

[[record]]
molecule = "CC(C)(C)n1cc(-c2cc(C(N)=O)c3c(c2)C(O)(C(F)(F)F)c2ccccc2-3)cn1 (centres unmarked)"
result = "> 7.00"

[[record]]
molecule = "OCC(CO)c1noc(-c2cc(F)cc3c2-c2ccccc2C3(O)C(F)(F)F)n1 (single isomer, unassigned)"
result = "6.00 to 7.00"

[[record]]
molecule = "CC(C)(C)n1cc(-c2cc(CO)c3c(c2)C(O)(C(F)(F)F)c2ccccc2-3)cn1 (centres unmarked)"
result = "6.00 to 7.00"


Answer with the recorded pIC50 for the molecule listed here: COc1cc(-c2cnn(CC(C)(C)C(=O)O)c2)c2c(c1)C(O)(C(F)(F)F)c1ccccc1-2 (single isomer, unassigned)
> 7.00
